SYSTEM: UniProtKB Q9HCR9
Sequence (Q9HCR9 whole entry): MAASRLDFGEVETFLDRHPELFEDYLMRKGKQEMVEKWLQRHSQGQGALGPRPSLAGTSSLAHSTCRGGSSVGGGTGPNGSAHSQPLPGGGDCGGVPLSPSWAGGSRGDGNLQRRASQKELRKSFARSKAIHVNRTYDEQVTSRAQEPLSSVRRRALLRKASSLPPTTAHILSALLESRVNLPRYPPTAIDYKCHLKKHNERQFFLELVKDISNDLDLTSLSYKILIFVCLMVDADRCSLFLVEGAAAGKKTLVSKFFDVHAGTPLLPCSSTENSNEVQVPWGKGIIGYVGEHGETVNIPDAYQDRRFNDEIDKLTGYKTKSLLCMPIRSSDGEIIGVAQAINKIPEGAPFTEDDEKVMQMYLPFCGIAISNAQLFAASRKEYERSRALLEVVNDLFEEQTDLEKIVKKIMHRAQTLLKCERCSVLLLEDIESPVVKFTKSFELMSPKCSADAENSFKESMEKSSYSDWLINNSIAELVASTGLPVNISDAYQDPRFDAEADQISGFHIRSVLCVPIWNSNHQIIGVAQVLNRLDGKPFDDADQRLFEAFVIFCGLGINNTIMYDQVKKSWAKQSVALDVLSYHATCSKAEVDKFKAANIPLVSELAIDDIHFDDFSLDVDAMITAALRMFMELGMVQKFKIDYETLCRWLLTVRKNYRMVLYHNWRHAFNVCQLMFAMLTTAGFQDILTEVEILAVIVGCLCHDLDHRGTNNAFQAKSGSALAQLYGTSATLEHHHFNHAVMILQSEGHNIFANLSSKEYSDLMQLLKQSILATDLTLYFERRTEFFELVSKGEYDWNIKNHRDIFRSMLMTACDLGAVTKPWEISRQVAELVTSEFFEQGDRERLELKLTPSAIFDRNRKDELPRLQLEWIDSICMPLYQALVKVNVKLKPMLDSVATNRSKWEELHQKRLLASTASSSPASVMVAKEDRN
PROTOCOL DESCRIPTION: Inhibition of full length human PDE11A4 expressed in HEK cells by scintillation proximity assay
QUANTITY MEASURED: pIC50
Give bare numbers, as −log10 of the molar value.

Incoming: pIC50 lookup needed for Cc1nc2ccncc2n2c(-c3ccccc3Cl)nnc12 , thanks.
Outgoing: 5.16

---

SYSTEM: High affinity 3',5'-cyclic-AMP phosphodiesterase 7A (Homo sapiens, UniProt Q13946)
Sequence (Q13946 whole entry): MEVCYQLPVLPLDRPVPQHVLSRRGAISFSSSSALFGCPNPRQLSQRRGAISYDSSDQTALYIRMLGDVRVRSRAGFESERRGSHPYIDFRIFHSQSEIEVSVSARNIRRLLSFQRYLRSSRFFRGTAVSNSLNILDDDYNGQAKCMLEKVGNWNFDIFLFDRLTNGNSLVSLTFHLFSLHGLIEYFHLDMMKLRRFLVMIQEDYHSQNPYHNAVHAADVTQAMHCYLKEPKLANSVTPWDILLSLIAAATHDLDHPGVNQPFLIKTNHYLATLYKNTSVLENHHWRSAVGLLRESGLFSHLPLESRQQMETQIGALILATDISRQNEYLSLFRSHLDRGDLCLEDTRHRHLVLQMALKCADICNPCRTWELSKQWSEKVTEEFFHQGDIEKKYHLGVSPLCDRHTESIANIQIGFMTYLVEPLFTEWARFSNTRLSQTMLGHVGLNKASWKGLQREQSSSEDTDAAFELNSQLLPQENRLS
PROTOCOL DESCRIPTION: Inhibition of 6-His-tagged human recombinant PDE7A1 expressed in Sf9 cells by scintillation proximity assay
QUANTITY MEASURED: IC50

Incoming: IC50 lookup needed for Cc1nc2ccncc2n2c(-c3ccccc3Cl)nnc12 , thanks.
Outgoing: > 10 µM

---

PROTOCOL DESCRIPTION: Volume of distribution at steady state in Sprague-Dawley rat at 2.5 mg/kg, iv
Type: ADME, organism-based
Set-up: dose 2.5 mg/kg, route intravenous
ASSAY CONTEXT: in vivo, read-out: Vdss
QUANTITY MEASURED: Vd (L/kg)
Give bare numbers, in L/kg.

Incoming: Vd lookup needed for Cc1nc2ccncc2n2c(-c3ccccc3Cl)nnc12 , thanks.
Outgoing: 1.02

---

PROTOCOL DESCRIPTION: Oral bioavailability in Sprague-Dawley rat at 10 mg/kg
Assay type: ADME, organism-based
ASSAY CONTEXT: in vivo
QUANTITY MEASURED: bioavailability (%)
Give bare numbers, in %.

Incoming: bioavailability lookup needed for Cc1nc2ccncc2n2c(-c3ccccc3Cl)nnc12 , thanks.
Outgoing: 100

---

PROTOCOL DESCRIPTION: Ratio of drug level in brain to plasma of Sprague-Dawley rat at 10 mg/kg, sc after 1 hr
Type: ADME, organism-based
Design: dose 10 mg/kg, route subcutaneous
ASSAY CONTEXT: read-out: BPR
Please provide measured Kp at 1 h for the entries that follow.
Give bare numbers.

Below: 5 compounds and their reported Kp at 1 h.
ENTRY SMILES: Cc1nc2ccncc2n2c(-c3cc(COCC(F)(F)F)ccc3Cl)nnc12
OBSERVED VALUE: 1.1
//
ENTRY SMILES: CCCOCc1ccc(Cl)c(-c2nnc3c(C)nc4ccncc4n23)c1
OBSERVED VALUE: 0.98
//
ENTRY SMILES: CCCCOc1cncc(-c2nnc3c(C)nc4ccncc4n23)c1
OBSERVED VALUE: 0.61
//
ENTRY SMILES: Cc1nc2ccncc2n2c(-c3ccccc3Cl)nnc12
OBSERVED VALUE: 0.65
//
ENTRY SMILES: CCCCOc1ccc(Cl)c(-c2nnc3c(C)nc4ccncc4n23)c1
OBSERVED VALUE: 0.69

Incoming: Kp at 1 h lookup needed for COCCOc1ccc(Cl)c(-c2nnc3c(C)nc4ccncc4n23)c1 , thanks.
Outgoing: 0.44

---

SYSTEM: CYP2C9 (Homo sapiens, UniProt P11712)
Sequence (P11712 whole entry): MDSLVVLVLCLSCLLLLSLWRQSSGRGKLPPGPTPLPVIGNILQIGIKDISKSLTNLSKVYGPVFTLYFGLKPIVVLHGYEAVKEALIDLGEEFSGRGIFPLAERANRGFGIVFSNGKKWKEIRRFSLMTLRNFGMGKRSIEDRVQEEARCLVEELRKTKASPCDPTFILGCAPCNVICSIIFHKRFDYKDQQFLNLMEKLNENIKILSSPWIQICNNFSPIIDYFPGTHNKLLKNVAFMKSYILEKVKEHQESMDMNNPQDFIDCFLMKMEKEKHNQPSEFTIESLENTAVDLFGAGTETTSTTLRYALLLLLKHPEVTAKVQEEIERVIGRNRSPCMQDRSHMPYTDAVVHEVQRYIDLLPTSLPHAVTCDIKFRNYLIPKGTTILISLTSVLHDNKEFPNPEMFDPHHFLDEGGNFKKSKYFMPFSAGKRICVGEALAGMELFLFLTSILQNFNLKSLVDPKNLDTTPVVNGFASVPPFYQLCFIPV
PROTOCOL DESCRIPTION: Inhibition of CYP2C9 (unknown origin) at 5 uM
Format: ADME
QUANTITY MEASURED: inhibition at 5 µM

Incoming: inhibition at 5 µM lookup needed for Cc1nc2ccncc2n2c(-c3ccccc3Cl)nnc12 , thanks.
Outgoing: < 50%

---

PROTOCOL DESCRIPTION: Tmax in Sprague-Dawley rat at 10 mg/kg, po
Assay type: ADME, organism-based
Parameters: dose 10 mg/kg, route oral
ASSAY CONTEXT: in vivo
QUANTITY MEASURED: Tmax (h)
Numbers only, in h.

Incoming: Tmax lookup needed for Cc1nc2ccncc2n2c(-c3ccccc3Cl)nnc12 , thanks.
Outgoing: 1.17

---

PROTOCOL DESCRIPTION: Kinetic solubility in pH 7.4 buffer incubated for 4 hrs
Format: physicochemical
ASSAY CONTEXT: read-out: Kinetic_solubility
QUANTITY MEASURED: solubility kinetic at 4 h

Incoming: solubility kinetic at 4 h lookup needed for Cc1nc2ccncc2n2c(-c3ccccc3Cl)nnc12 , thanks.
Outgoing: > 1000 µM

---

PROTOCOL DESCRIPTION: Half life in Sprague-Dawley rat at 2.5 mg/kg, iv
Type: ADME, organism-based
Set-up: dose 2.5 mg/kg, route intravenous
ASSAY CONTEXT: in vivo
QUANTITY MEASURED: half-life (min)
Numbers only, in min.

Incoming: half-life lookup needed for Cc1nc2ccncc2n2c(-c3ccccc3Cl)nnc12 , thanks.
Outgoing: 28.2

---

PROTOCOL DESCRIPTION: Drug formulatability in 20% HPbetaCD at pH >3.5 buffer
Type: physicochemical
ASSAY CONTEXT: 20% HPbetaCD in buffer at pH >3.5; read-out: Activity
QUANTITY MEASURED: solubility
In your response, the unit should come after the numeric value.

Incoming: solubility lookup needed for Cc1nc2ccncc2n2c(-c3ccccc3Cl)nnc12 , thanks.
Outgoing: 4000 µg/mL

---

SYSTEM: cGMP-inhibited 3',5'-cyclic phosphodiesterase 3B (Homo sapiens)
Sequence (Q13370 whole entry): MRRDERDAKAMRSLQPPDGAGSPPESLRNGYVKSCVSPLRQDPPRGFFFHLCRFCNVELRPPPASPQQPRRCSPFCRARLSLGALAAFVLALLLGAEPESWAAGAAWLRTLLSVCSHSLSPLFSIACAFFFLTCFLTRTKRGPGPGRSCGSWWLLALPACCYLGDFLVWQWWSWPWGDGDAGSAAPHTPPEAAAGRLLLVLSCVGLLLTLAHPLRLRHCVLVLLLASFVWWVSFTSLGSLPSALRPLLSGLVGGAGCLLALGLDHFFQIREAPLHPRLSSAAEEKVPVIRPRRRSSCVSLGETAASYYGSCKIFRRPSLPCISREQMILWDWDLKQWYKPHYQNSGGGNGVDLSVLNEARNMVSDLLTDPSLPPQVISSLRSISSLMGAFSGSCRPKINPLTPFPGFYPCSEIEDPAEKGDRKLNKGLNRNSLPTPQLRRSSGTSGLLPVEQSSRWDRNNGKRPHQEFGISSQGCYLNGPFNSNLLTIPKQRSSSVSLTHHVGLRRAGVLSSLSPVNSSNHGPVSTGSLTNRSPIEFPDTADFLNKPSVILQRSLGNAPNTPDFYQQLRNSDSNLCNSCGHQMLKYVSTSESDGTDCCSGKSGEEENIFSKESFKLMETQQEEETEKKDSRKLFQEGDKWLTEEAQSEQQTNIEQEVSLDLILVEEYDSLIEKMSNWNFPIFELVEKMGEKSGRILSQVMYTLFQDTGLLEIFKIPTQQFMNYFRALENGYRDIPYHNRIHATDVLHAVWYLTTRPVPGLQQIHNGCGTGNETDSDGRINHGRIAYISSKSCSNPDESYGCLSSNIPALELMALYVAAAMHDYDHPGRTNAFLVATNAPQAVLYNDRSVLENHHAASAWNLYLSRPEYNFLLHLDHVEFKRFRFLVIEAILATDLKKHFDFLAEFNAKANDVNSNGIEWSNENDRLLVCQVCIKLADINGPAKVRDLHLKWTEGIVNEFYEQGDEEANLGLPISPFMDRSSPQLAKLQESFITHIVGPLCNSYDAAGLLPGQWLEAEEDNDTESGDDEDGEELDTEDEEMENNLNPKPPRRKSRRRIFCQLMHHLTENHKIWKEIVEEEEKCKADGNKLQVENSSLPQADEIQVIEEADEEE
pIC50: −log10 of the molar value.
QUANTITY MEASURED: pIC50

Incoming: pIC50 lookup needed for Cc1nc2ccncc2n2c(-c3ccccc3Cl)nnc12 , thanks.
Outgoing: < 5.00

---

Please provide measured fraction unbound at 5 h for the entries that follow.
PROTOCOL DESCRIPTION: Unbound fraction in Sprague-Dawley rat brain homogenates at 10 mg/kg, sc after 5 hrs at 37 degC by rapid equilibrium dialysis
Type: ADME, organism-based
Design: dose 10 mg/kg, route subcutaneous
ASSAY CONTEXT: brain homogenate
One number for each entry.

ENTRY SMILES: COCCOc1ccc(Cl)c(-c2nnc3c(C)nc4ccncc4n23)c1
fraction unbound at 5 h: 0.17
//
ENTRY SMILES: CCCOCc1ccc(Cl)c(-c2nnc3c(C)nc4ccncc4n23)c1
fraction unbound at 5 h: 0.1
//
ENTRY SMILES: Cc1nc2ccncc2n2c(-c3cc(COCC(F)(F)F)ccc3Cl)nnc12
fraction unbound at 5 h: 0.1

Incoming: fraction unbound at 5 h lookup needed for CCCCOc1ccc(Cl)c(-c2nnc3c(C)nc4ccncc4n23)c1 , thanks.
Outgoing: 0.026

---

SYSTEM: High affinity cGMP-specific 3',5'-cyclic phosphodiesterase 9A (Homo sapiens, UniProt O76083)
Sequence (O76083 whole entry): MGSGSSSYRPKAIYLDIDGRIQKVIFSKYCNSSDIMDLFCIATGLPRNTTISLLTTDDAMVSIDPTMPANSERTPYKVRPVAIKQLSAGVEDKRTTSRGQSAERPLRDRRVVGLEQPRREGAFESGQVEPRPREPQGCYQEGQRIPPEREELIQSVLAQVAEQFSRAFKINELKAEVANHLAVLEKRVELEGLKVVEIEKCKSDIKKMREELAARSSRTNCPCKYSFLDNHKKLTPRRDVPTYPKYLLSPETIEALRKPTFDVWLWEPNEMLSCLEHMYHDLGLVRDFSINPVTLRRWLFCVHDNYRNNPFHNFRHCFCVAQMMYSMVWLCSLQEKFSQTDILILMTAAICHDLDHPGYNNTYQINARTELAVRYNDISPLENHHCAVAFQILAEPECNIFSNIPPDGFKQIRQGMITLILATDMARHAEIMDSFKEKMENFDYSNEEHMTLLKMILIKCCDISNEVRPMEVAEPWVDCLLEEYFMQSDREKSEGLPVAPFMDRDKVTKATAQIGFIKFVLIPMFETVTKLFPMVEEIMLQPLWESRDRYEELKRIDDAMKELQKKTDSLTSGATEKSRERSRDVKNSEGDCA
PROTOCOL DESCRIPTION: Inhibition of 6-His-tagged human recombinant PDE9A1 expressed in Sf9 cells by scintillation proximity assay
pIC50: −log10 of the molar value.
QUANTITY MEASURED: pIC50

Incoming: pIC50 lookup needed for Cc1nc2ccncc2n2c(-c3ccccc3Cl)nnc12 , thanks.
Outgoing: < 5.00

---

PROTOCOL DESCRIPTION: Dissociation constant, pKa of the compound at 25 degC by potentiometric titration method
Assay type: physicochemical
QUANTITY MEASURED: pKa
Give bare numbers.

Incoming: pKa lookup needed for Cc1nc2ccncc2n2c(-c3ccccc3Cl)nnc12 , thanks.
Outgoing: 2.7

---

PROTOCOL DESCRIPTION: Drug metabolism in rat liver microsomes at 1 uM incubated for 15 mins at 37 degC
Format: ADME
ASSAY CONTEXT: read-out: Drug metabolism
QUANTITY MEASURED: metabolised at 0.25 h, 1 µM (%)
Answers are plain numbers, in %.

ENTRY SMILES: CCCOCc1ccc(Cl)c(-c2nnc3c(C)nc4ccncc4n23)c1
QUANTITY MEASURED: metabolised at 0.25 h, 1 µM
OBSERVED VALUE: 98

I have 5 compounds here; please give me metabolised at 0.25 h, 1 µM for each one.
1. Cc1nc2ccncc2n2c(-c3cc(N4CCOCC4)ccc3Cl)nnc12
2. CCCCOc1cncc(-c2nnc3c(C)nc4ccncc4n23)c1
3. CCCCOc1ccc(Cl)c(-c2nnc3c(C)nc4ccncc4n23)c1
4. COCCOc1ccc(Cl)c(-c2nnc3c(C)nc4ccncc4n23)c1
5. Cc1nc2ccncc2n2c(-c3cc(COCC(F)(F)F)ccc3Cl)nnc12

Outgoing:
1. 53
2. 46
3. 98
4. 18
5. 77

---

PROTOCOL DESCRIPTION: Initial plasma concentration in Sprague-Dawley rat at 2.5 mg/kg, iv
Type: ADME, organism-based
Set-up: dose 2.5 mg/kg, route intravenous
QUANTITY MEASURED: C0
In your response, the unit should come after the numeric value.

Incoming: C0 lookup needed for Cc1nc2ccncc2n2c(-c3ccccc3Cl)nnc12 , thanks.
Outgoing: 3020 ng/mL

---

PROTOCOL DESCRIPTION: Solubility in pH 7.4 buffer
Type: physicochemical
QUANTITY MEASURED: solubility

Incoming: solubility lookup needed for Cc1nc2ccncc2n2c(-c3ccccc3Cl)nnc12 , thanks.
Outgoing: > 1000 µM

---

PROTOCOL DESCRIPTION: AUC (0 to infinity) in Sprague-Dawley rat at 10 mg/kg, po
Type: ADME, organism-based
Set-up: time infinity, dose 10 mg/kg, route oral
ASSAY CONTEXT: plasma
QUANTITY MEASURED: AUC(0-inf) (ng·h/mL)
Numbers only, in ng·h/mL.

Incoming: AUC(0-inf) lookup needed for Cc1nc2ccncc2n2c(-c3ccccc3Cl)nnc12 , thanks.
Outgoing: 4230
